Measured values drawn from the Immune Epitope Database (IEDB) for this set.

# Assay Target: HLA-C*05:01
# Protocol: IEDB peptide-MHC binding, purified MHC/direct/fluorescence; filed as Kd, often an IC50 or EC50 that approximates it; bounds were set here for any values at or beyond the usual limits of such assays
# Condition Summary: source organism: Vaccinia virus Copenhagen
Outcome Measure: Kd

I would be grateful if you could share the reported Kd for FPSVFINPI .
≥ 20 µM

###

# Assay Target: HLA-A*24:03
# Protocol: IEDB peptide-MHC binding, purified MHC/direct/fluorescence; filed as Kd, often an IC50 or EC50 that approximates it; bounds were set here for any values at or beyond the usual limits of such assays
# Condition Summary: source organism: Choclo virus
pKd: −log10 of the molar value.
Outcome Measure: pKd

Looking for the measured pKd of FVKDWMDRI , can you help?
≤ 4.70

###

# Assay Target: HLA-A*26:01
# Protocol: IEDB peptide-MHC binding, purified MHC/direct/fluorescence; filed as Kd, often an IC50 or EC50 that approximates it; bounds were set here for any values at or beyond the usual limits of such assays
# Condition Summary: source organism: Mycobacterium tuberculosis C
pKd: −log10 of the molar value.
Outcome Measure: pKd

Any idea what pKd was measured for TIHLATAPK ?
≤ 4.70

###

# Assay Target: HLA-B*57:01
# Protocol: IEDB peptide-MHC binding, purified MHC/direct/fluorescence; filed as Kd, often an IC50 or EC50 that approximates it; bounds were set here for any values at or beyond the usual limits of such assays
# Condition Summary: source organism: Escherichia coli O157:H7
pKd: −log10 of the molar value.
Outcome Measure: pKd

Which pKd value is on record for NLPSKPVWL ?
≤ 4.70

###

# Assay Target: HLA-A*68:02
# Protocol: IEDB peptide-MHC binding, purified MHC/competitive/radioactivity; filed as Kd, often an IC50 or EC50 that approximates it; bounds were set here for any values at or beyond the usual limits of such assays
# Condition Summary: source organism: Dengue virus 1 Brazil/97-11/1997
pKd: −log10 of the molar value.
Classify by measured pKd: met if it is equal to or exceeds 8, not met if it is smaller.

Input Sequence: YVVIGLLFMI
Assay Target: HLA-A*68:02
Discrete Label: not met
--
Input Sequence: TTSGTYVSAI
Assay Target: HLA-A*68:02
Discrete Label: not met
--
Input Sequence: SSALLWMASV
Assay Target: HLA-A*68:02
Discrete Label: not met

Read the next record carefully.
Kindly determine if pKd recorded for MSIPATLFV is above or exactly 8.
met

###

# Assay Target: HLA-A*02:06
# Protocol: IEDB peptide-MHC binding, purified MHC/competitive/fluorescence; filed as Kd, often an IC50 or EC50 that approximates it; bounds were set here for any values at or beyond the usual limits of such assays
# Condition Summary: source organism: Mycobacterium tuberculosis CDC1551
Outcome Measure: pKd
Answers are plain numbers, as −log10 of the molar value.

What pKd appears in the records for this sequence with HLA-A*02:06? ALRSRWRAL
6.26

###

Would you mind telling me the reported pIC50 of each entry?
# Assay Target: HLA-A*11:01
# Protocol: IEDB peptide-MHC binding, purified MHC/competitive/fluorescence; bounds were set here for any values at or beyond the usual limits of such assays
# Condition Summary: source organism: Vaccinia virus
pIC50: −log10 of the molar value.

Reference set, count: 2
Input Sequence: SLMEMDYER
pIC50: 5.72
//
Input Sequence: KQKMFSNNV
pIC50: ≤ 3.94

Turning now to a further record.
What value of pIC50 has been recorded for this entry: QKFPYEGGK
≤ 3.86
